- protocol-notes: in vitro
- condition-info: PAMPA, pH 9
endpoint-name: Papp

INSERT INTO assay_data (chemical_string, reading) VALUES
  ('CNS(=O)(=O)Cc1ccc2[nH]cc(CCN(C)C)c2c1', '599 ×10⁻⁶ cm/s');

---

- protocol-notes: Membrane assay (parallel artificial membrane, effective permeability)
- condition-info: PAMPA, pH 6.5
endpoint-name: Papp (×10⁻⁶ cm/s)

INSERT INTO results (chemical_string, reading) VALUES
  ('COc1ccc2c3c1O[C@H]1C(=O)CC[C@@]4(O)[C@@H](C2)N(C)CC[C@]314', 227);

---

- protocol-notes: Membrane assay (parallel artificial membrane, effective permeability)
- condition-info: PAMPA, pH 10
endpoint-name: Papp (×10⁻⁶ cm/s)

INSERT INTO measurements (molecule, reading) VALUES
  ('COc1ccc2c3c1O[C@H]1C(=O)CC[C@@]4(O)[C@@H](C2)N(C)CC[C@]314 [Oxycodone, oxycodone]', 554);

---

- protocol-notes: Membrane assay (parallel artificial membrane, effective permeability)
- condition-info: PAMPA, pH 9.5
endpoint-name: Papp (×10⁻⁶ cm/s)

INSERT INTO assay_data (compound, reading) VALUES
  ('COc1ccc2c3c1O[C@H]1C(=O)CC[C@@]4(O)[C@@H](C2)N(C)CC[C@]314 [Oxycodone, oxycodone]', 490);

---

- protocol-notes: in vitro
- condition-info: PAMPA, pH 9.5
endpoint-name: Papp (nm/s)

INSERT INTO measurements (chemical_string, measure_unit, reading) VALUES
  ('CNS(=O)(=O)Cc1ccc2[nH]cc(CCN(C)C)c2c1', 'nm/s', 9450);

Data provenance is patent US20050042281A1.
